# target.or.system: TDO (Homo sapiens, UniProt P48775)
# Sequence (P48775 whole entry): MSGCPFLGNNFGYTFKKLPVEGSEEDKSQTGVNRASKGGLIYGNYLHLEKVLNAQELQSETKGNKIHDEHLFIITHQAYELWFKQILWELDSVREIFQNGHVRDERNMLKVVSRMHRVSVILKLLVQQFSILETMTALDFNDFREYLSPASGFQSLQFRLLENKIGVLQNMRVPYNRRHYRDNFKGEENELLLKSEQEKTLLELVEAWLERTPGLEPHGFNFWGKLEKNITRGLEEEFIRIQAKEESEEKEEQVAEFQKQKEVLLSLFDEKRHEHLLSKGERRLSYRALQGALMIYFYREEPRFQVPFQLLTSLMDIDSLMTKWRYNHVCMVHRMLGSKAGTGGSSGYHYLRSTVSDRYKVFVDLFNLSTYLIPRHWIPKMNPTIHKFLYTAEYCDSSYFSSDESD
# method.summary: hTDO biochemical coupled assay
# measurement.conditions: 330 μM L-tryptophan, coupled with kynurenine formamidase
measurement.type: hTDO biochemical assay pIC50

Take a look at these entries with their results.
O=S(=O)(Nc1cccc2cnccc12)c1cccc2ccccc12    + (+ = pIC50 4.00-4.49)
O=C(Nc1cccc2cnccc12)C1COc2ccccc2C1 (stereo not shown)    +++ (+++ = pIC50 ≥5.50)
CC(C)CS(=O)(=O)Nc1cccc2cnccc12    +++ (+++ = pIC50 ≥5.50)
Cc1cc2c(NC(=O)c3ccc4ccccc4n3)cccc2nn1    + (+ = pIC50 4.00-4.49)
CC(C)Oc1ccc(S(=O)(=O)Nc2cc(Cl)cc3cnccc23)cc1    +/− (+/− = pIC50 <4.00)
O=S(=O)(Nc1cccc2ccncc12)c1ccccc1    +/− (+/− = pIC50 <4.00)

Notebook entry, TDO (Homo sapiens, UniProt P48775) assay: hTDO biochemical assay pIC50 of `O=S(=O)(Nc1cc(Cl)cc2cnccc12)c1ccc(Cl)cc1` = ?
+/− (+/− = pIC50 <4.00)

* * *

# target.or.system: TDO (Homo sapiens)
# method.summary: A172 Kynurenine cell based assay
# Set-up: This assay utilised cancer cells which expressed either TDO or IDO; endogenous in cells; host or cells: A172 (human glioblastoma)
# measurement.conditions: A172 (human glioblastoma) cells, 500 μM L-tryptophan, 48 hours, kynurenine by Erhlich's reagent
measurement.type: A172 Kynurenine cell based assay pIC50

O=S(=O)(Nc1cccc2cnccc12)c1cccc(OC(F)F)c1    +++ (+++ = pIC50 ≥5.50)
O=C(Nc1cccc2cnccc12)C1COc2ccccc2C1 (stereo not shown)    + (+ = pIC50 4.00-4.49)
O=S(=O)(Nc1ccccc1)c1cccc2cnccc12    + (+ = pIC50 4.00-4.49)
O=S(=O)(Nc1cccc2cnccc12)c1ccccc1    +++ (+++ = pIC50 ≥5.50)

* * *

# target.or.system: UniProt P14902
# method.summary: SKOV3 Kynurenine cell based assay
# Set-up: IDO expression was induced in the SKOV3 cells by the addition of 500 ng/ml IFN-γ; endogenous in cells; host or cells: SKOV3 (human ovarian adenocarcinoma), induced with IFN-γ
# measurement.conditions: SKOV3 (human ovarian adenocarcinoma) cells, IDO induced by 500 ng/ml IFN-γ, 500 μM L-tryptophan, 48 hours
measurement.type: SKOV3 Kynurenine cell based assay pIC50

O=C(Nc1cccc2cnccc12)c1ccccc1    + (+ = pIC50 4.00-4.49)
O=S(=O)(Nc1cccc2cnccc12)c1ccc2c(c1)OCCO2    +++ (+++ = pIC50 ≥5.50)
CC(C)CS(=O)(=O)N(c1cccc2cnccc12)S(=O)(=O)CC(C)C    + (+ = pIC50 4.00-4.49)
Cc1cc2c(NC(=O)c3ccc4ncccc4c3)cccc2nn1    + (+ = pIC50 4.00-4.49)
O=S(=O)(Nc1cccc2cnccc12)c1ccc(-c2ccccc2)cc1    +++ (+++ = pIC50 ≥5.50)
O=C(Nc1cncc2ccccc12)c1ccccc1    + (+ = pIC50 4.00-4.49)

Next compound, please.
Any idea what SKOV3 Kynurenine cell based assay pIC50 was measured for `O=S(=O)(Nc1ccc2cnccc2c1)c1ccccc1` ?
+ (+ = pIC50 4.00-4.49)

* * *

# target.or.system: UniProt:P48775
# method.summary: A172 Kynurenine cell based assay
# Parameters: This assay utilised cancer cells which expressed either TDO or IDO; endogenous in cells; host or cells: A172 (human glioblastoma)
# measurement.conditions: A172 (human glioblastoma) cells, 500 μM L-tryptophan, 48 hours, kynurenine by Erhlich's reagent
# Protocol: Exemplary compounds of the invention were prepared, and tested to determine their effect as TDO and/or IDO inhibitors. […] This coupled enzyme system allowed conversion of N-formylkynurenine produced by TDO or IDO activity to kynurenine which was then quantified by fluorescence following addition of Erhlich's Reagent The protocols for these are set out below. […]
measurement.type: A172 Kynurenine cell based assay pIC50

Some entries whose results are on file:
O=C(Nc1ccccc1)c1cccc2cnccc12 [Compound 43]    +/− (+/− = pIC50 <4.00)
O=S(=O)(Nc1cccc2ccncc12)c1ccc(Cl)cc1 [Compound 55]    + (+ = pIC50 4.00-4.49)
COc1ccc(S(=O)(=O)Nc2cccc3cnccc23)cc1 [Compound 35]    +++ (+++ = pIC50 ≥5.50)
Cc1cc2c(NC(=O)c3ccc4ncccc4c3)cccc2nn1 [Compound 2]    + (+ = pIC50 4.00-4.49)

Report A172 Kynurenine cell based assay pIC50 for CC(C)CS(=O)(=O)Nc1cccc2cnccc12 [Compound 4] please.
+ (+ = pIC50 4.00-4.49)

Item under review: O=S(=O)(Nc1cccc2cnccc12)c1ccc(-c2ccccc2)cc1 [Compound 20] . Reported A172 Kynurenine cell based assay pIC50?
+++ (+++ = pIC50 ≥5.50)

Param item = O=S(=O)(NC1CCCc2cnccc21)c1ccccc1 (stereo not shown) [Compound 49] ; retrieve measured A172 Kynurenine cell based assay pIC50.
+/− (+/− = pIC50 <4.00)

# input molecule: O=S(=O)(Nc1cncc2ccccc12)c1ccccc1 [Compound 38] ; wanted: its A172 Kynurenine cell based assay pIC50
+ (+ = pIC50 4.00-4.49)

Give the measured A172 Kynurenine cell based assay pIC50 of O=S(=O)(Nc1ccc2cnccc2c1)c1ccccc1 [Compound 39] .
+/− (+/− = pIC50 <4.00)

* * *

# target.or.system: IDO (Homo sapiens, UniProt P14902)
# Sequence (P14902 whole entry): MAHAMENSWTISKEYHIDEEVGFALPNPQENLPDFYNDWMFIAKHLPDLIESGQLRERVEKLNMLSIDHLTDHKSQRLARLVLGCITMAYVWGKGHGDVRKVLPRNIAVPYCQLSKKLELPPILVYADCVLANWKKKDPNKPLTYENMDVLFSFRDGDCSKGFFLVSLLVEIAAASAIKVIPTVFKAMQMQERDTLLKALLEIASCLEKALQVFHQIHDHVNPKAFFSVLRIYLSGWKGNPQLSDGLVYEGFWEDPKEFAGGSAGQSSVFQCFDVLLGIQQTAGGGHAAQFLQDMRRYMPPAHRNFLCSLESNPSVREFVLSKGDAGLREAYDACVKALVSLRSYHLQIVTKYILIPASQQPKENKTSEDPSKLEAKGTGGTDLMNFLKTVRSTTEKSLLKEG
# method.summary: SKOV3 Kynurenine cell based assay
# Parameters: IDO expression was induced in the SKOV3 cells by the addition of 500 ng/ml IFN-γ; endogenous in cells; host or cells: SKOV3 (human ovarian adenocarcinoma), induced with IFN-γ
# measurement.conditions: SKOV3 (human ovarian adenocarcinoma) cells, IDO induced by 500 ng/ml IFN-γ, 500 μM L-tryptophan, 48 hours
measurement.type: SKOV3 Kynurenine cell based assay pIC50

Please review the following examples before continuing.
CS(=O)(=O)c1ccc(S(=O)(=O)Nc2cccc3cnccc23)cc1    + (+ = pIC50 4.00-4.49)
O=S(=O)(Nc1cccc2cnccc12)c1cccc2cccnc12    + (+ = pIC50 4.00-4.49)
COc1ccc(S(=O)(=O)Nc2cccc3cnccc23)cc1OC    + (+ = pIC50 4.00-4.49)
CCCS(=O)(=O)Nc1cccc2cnccc12    +/− (+/− = pIC50 <4.00)
Nc1nccc2c(NS(=O)(=O)c3ccccc3)cccc12    + (+ = pIC50 4.00-4.49)

Now let's try a different one.
Form field: reported SKOV3 Kynurenine cell based assay pIC50 of `O=S(=O)(Nc1cccc2cnccc12)c1ccc(F)cc1F`
+ (+ = pIC50 4.00-4.49)

* * *

# target.or.system: UniProt:P14902
# method.summary: hIDO biochemical coupled assay
# measurement.conditions: 45 μM L-tryptophan, coupled with kynurenine formamidase
measurement.type: hIDO biochemical assay pIC50

Example entries and their recorded answers appear below.
O=S(=O)(Nc1cccc2ccncc12)c1ccccc1 [Compound 56]    + (+ = pIC50 4.00-4.49)
Cc1cc2c(NC(=O)c3ccc4ncccc4c3)cccc2nn1 [Compound 2]    +/− (+/− = pIC50 <4.00)
CC(C)Oc1ccc(S(=O)(=O)Nc2cc(Cl)cc3cnccc23)cc1 [Compound 58]    + (+ = pIC50 4.00-4.49)
Cc1cc2c(NC(=O)c3ccc4ccccc4n3)cccc2nn1 [Compound 3]    +/− (+/− = pIC50 <4.00)

# ---- query compound ----
Give UniProt:P14902 hIDO biochemical assay pIC50 for O=S(=O)(Nc1cc(Cl)cc2cnccc12)c1ccc(Cl)cc1 [Compound 57]
+ (+ = pIC50 4.00-4.49)

* * *

# target.or.system: IDO (Homo sapiens)
# method.summary: SKOV3 Kynurenine cell based assay
# Set-up: IDO expression was induced in the SKOV3 cells by the addition of 500 ng/ml IFN-γ; endogenous in cells; host or cells: SKOV3 (human ovarian adenocarcinoma), induced with IFN-γ
# measurement.conditions: SKOV3 (human ovarian adenocarcinoma) cells, IDO induced by 500 ng/ml IFN-γ, 500 μM L-tryptophan, 48 hours
# Procedure: Exemplary compounds of the invention were prepared, and tested to determine their effect as TDO and/or IDO inhibitors. […] This coupled enzyme system allowed conversion of N-formylkynurenine produced by TDO or IDO activity to kynurenine which was then quantified by fluorescence following addition of Erhlich's Reagent The protocols for these are set out below. […]
measurement.type: SKOV3 Kynurenine cell based assay pIC50

O=S(=O)(Nc1cccc2ccncc12)c1ccccc1 [Compound 56]    + (+ = pIC50 4.00-4.49)
CC(C)Oc1ccc(S(=O)(=O)Nc2cccc3ccncc23)cc1 [Compound 53]    + (+ = pIC50 4.00-4.49)
O=C(Nc1ccc2cnccc2c1)c1ccccc1 [Compound 32]    + (+ = pIC50 4.00-4.49)
